target: UniProtKB P34995; assay: Activity at EP1 receptor
Sequence (P34995 whole entry): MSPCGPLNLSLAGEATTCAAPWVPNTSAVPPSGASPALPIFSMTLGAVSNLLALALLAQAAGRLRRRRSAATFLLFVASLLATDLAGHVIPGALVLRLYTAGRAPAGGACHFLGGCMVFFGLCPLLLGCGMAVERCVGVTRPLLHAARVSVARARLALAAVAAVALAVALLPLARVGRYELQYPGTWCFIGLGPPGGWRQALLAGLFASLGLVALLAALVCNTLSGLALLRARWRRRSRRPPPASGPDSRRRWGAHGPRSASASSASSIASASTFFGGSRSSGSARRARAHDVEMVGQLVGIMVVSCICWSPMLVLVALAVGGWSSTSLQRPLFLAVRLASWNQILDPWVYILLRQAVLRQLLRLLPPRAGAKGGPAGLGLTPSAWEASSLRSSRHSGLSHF
MEASUREMENT_TYPE: Ki

given_smiles=O=C(O)CCc1ccc(NCc2cccc(Oc3ccccc3)c2)cc1 tested_on="UniProtKB P34995" reported="> 1.58 µM"

----------
molecular target: Sphingosine 1-phosphate receptor 1 (Homo sapiens); assay: Activity at S1P1 receptor
Sequence (P21453 whole entry): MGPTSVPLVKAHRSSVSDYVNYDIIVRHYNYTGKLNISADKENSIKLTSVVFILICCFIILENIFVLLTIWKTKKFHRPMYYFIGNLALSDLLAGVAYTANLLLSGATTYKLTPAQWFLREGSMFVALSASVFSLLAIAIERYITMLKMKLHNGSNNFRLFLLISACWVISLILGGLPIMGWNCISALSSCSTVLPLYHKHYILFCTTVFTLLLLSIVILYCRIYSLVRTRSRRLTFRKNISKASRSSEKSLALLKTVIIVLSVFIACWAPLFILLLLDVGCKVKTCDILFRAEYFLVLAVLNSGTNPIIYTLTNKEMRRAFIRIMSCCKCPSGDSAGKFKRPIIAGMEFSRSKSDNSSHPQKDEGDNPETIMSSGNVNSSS
MEASUREMENT_TYPE: EC50

compound="O=C(O)CCc1ccc(NCc2cccc(Oc3ccccc3)c2)cc1 [GW9508]" reported="> 31.6 µM"

----------
target: Peroxisome proliferator-activated receptor delta (Homo sapiens); assay: Activity at PPARdelta receptor
Sequence (Q03181 whole entry): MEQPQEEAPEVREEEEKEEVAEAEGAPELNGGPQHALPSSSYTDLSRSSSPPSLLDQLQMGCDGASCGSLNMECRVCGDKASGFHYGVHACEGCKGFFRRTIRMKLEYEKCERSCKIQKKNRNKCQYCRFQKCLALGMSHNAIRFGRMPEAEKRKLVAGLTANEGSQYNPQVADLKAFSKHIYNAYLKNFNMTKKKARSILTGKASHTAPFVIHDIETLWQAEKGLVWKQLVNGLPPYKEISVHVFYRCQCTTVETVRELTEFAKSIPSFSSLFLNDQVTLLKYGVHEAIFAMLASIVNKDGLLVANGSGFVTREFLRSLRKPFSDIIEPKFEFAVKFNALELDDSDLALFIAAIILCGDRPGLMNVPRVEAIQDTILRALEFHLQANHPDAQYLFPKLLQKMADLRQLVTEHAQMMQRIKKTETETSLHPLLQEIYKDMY
pKi: −log10 of the molar value.
MEASUREMENT_TYPE: pKi

compound="O=C(O)CCc1ccc(NCc2cccc(Oc3ccccc3)c2)cc1 [GW9508]" measurement_type=pKi reported="< 5.50"

----------
molecular target: Peroxisome proliferator-activated receptor alpha (Homo sapiens); test: Activity at PPARalpha receptor
Sequence (Q07869 whole entry): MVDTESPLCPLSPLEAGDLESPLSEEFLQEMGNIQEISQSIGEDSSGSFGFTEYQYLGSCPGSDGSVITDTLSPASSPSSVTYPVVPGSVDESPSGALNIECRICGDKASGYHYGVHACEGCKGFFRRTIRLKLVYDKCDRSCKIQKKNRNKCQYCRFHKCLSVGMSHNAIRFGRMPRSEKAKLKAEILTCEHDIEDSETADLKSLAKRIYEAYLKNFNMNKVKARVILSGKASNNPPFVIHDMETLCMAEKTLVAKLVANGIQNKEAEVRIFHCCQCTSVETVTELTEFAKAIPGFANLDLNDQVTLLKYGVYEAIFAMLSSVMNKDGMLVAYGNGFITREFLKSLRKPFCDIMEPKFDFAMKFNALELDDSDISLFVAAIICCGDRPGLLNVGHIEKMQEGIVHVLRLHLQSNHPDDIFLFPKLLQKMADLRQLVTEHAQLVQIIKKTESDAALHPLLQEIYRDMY
pKi: −log10 of the molar value.
MEASUREMENT_TYPE: pKi

given_smiles=O=C(O)CCc1ccc(NCc2cccc(Oc3ccccc3)c2)cc1 reported="< 5.50"

----------
assay: Volume of distribution at steady state in rat; format: ADME, organism-based; settings: in vivo, read-out: Vdss
MEASUREMENT_TYPE: Vd (L/kg)

compound="O=C(O)CCc1ccc(NCc2cccc(Oc3ccccc3)c2)cc1 [GW9508]" measurement_type=Vd units_text=L/kg reported=4.7

----------
assay: Protein binding in rat plasma by ultrafiltration assay; type: ADME, cell-free; conditions: read-out: PB
MEASUREMENT_TYPE: fraction unbound

compound="O=C(O)CCc1ccc(NCc2cccc(Oc3ccccc3)c2)cc1 [GW9508]" measurement_type="fraction unbound" reported="< 0.004"

----------
molecular target: Free fatty acid receptor 1 (Homo sapiens, UniProt O14842); assay: Agonist activity at GPR40 receptor
Sequence (O14842 whole entry): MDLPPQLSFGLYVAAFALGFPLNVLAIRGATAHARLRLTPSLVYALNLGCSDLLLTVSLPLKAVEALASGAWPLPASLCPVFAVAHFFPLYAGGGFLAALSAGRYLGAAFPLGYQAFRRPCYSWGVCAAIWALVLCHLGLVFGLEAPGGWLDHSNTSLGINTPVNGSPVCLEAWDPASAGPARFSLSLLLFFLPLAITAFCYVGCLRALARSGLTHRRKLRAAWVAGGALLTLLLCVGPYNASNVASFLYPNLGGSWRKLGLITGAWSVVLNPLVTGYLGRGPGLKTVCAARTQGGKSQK
pEC50: −log10 of the molar value.
MEASUREMENT_TYPE: pEC50

molecule=O=C(O)CCc1ccc(NCc2cc(C(F)(F)F)cnc2Cl)cc1 measurement_type=pEC50 reported=5.30
molecule=O=C(O)CCc1cccc(NCc2ccc(-c3ccccc3)cc2)c1 measurement_type=pEC50 reported=6.30
molecule=Cc1ccc(CNc2ccc(CCC(=O)O)cc2)cc1 measurement_type=pEC50 reported=5.40
molecule="O=C(O)C1CC1c1ccc(NCc2cccc(Oc3ccccc3)c2)cc1 (stereo not given)" measurement_type=pEC50 reported=7.30
molecule=O=C(O)CCc1ccc(NCc2cccc(Br)c2)cc1 measurement_type=pEC50 reported=6.10
molecule=O=C(O)CCc1cccc(NCc2cccc(Oc3ccccc3)c2)c1 measurement_type=pEC50 reported=6.40
molecule=O=C(O)CCc1ccc(NCc2ccc3ccccc3c2)cc1 measurement_type=pEC50 reported=6.10
molecule=O=C(O)CCc1ccc(NCc2ccc(Cl)cc2)cc1 measurement_type=pEC50 reported=6.00
molecule=O=C(O)CCc1ccc(NCc2ccccc2)cc1 measurement_type=pEC50 reported=5.10
molecule=O=C(O)Cc1ccc(NCc2cccc(Oc3ccccc3)c2)cc1 measurement_type=pEC50 reported=5.40

----------
assay: Half life in po dosed rat; assay type: ADME, organism-based; settings: in vivo
MEASUREMENT_TYPE: half-life (min)

compound="O=C(O)CCc1ccc(NCc2cccc(Oc3ccccc3)c2)cc1 [GW9508]" measurement_type=half-life reported=354

----------
target: Free fatty acid receptor 2 (Homo sapiens, UniProt O15552); assay: Activity at GPR43 receptor
Sequence (O15552 whole entry): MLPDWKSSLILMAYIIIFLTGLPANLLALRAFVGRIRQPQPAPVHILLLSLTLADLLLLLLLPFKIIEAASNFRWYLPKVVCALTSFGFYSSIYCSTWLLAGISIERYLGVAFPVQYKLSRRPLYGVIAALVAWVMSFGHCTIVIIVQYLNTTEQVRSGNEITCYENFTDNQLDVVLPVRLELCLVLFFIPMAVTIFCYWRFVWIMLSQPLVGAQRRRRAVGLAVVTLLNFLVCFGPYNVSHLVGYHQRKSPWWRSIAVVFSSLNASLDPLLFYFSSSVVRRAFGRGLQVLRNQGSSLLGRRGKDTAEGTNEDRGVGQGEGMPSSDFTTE
MEASUREMENT_TYPE: EC50

molecule="O=C(O)CCc1ccc(NCc2cccc(Oc3ccccc3)c2)cc1 [GW9508]" reported="> 50.1 µM"
